Source of measurements: patent US20250268903A1

Biological target: human RXFP1 (Homo sapiens, UniProt Q9HBX9)
Sequence (Q9HBX9 1-757): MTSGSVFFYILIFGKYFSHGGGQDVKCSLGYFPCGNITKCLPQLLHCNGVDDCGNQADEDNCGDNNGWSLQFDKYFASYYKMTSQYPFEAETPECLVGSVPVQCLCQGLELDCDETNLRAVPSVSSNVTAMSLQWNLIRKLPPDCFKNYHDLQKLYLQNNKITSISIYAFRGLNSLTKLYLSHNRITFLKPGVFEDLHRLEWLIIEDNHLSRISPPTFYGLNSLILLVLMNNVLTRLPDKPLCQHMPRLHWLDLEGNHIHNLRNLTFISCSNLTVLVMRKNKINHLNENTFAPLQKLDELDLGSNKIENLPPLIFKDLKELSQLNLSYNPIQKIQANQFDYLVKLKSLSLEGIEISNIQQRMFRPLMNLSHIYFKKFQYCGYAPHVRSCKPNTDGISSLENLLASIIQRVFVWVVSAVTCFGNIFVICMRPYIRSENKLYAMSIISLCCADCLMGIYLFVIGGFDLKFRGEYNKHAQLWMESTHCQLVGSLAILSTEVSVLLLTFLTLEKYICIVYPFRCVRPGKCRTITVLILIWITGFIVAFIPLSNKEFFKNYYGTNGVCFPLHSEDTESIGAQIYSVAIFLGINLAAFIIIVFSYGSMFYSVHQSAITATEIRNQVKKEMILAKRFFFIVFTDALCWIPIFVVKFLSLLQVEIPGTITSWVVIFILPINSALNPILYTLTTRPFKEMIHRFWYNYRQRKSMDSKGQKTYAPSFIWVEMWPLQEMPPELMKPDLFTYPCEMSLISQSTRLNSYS
Experiment: hRXFP1 HEK293 cAMP assay (HTRF)
Details: HEK293 cells stably expressing human RXFP1, 30 min at room temperature
Listing: pEC50 of selected compounds
Please report pEC50 as the negative decimal logarithm of the molar concentration, giving only the number.

Answered examples (3):
>  <compound>
COc1ccc(COCCC(=O)O)cc1C(=O)N[C@@H]1C2CCC(/C2=C/c2ccccc2)[C@@H]1C(=O)Nc1ccc(F)c(C(F)(F)F)c1 (some centres unmarked)

>  <system.under.test>
human RXFP1 (Homo sapiens, UniProt Q9HBX9)

>  <pEC50>
7.25

$$$$
>  <compound>
COc1ccc(S(=O)(=O)N2CCN3C(=O)OCC3C2)cc1C(=O)N[C@H]1[C@@H](C(=O)Nc2ccc(F)c(C(F)(F)F)c2)[C@H]2CC[C@@H]1/C2=C\C(F)(F)F (some centres unmarked)

>  <system.under.test>
human RXFP1 (Homo sapiens, UniProt Q9HBX9)

>  <pEC50>
6.34

$$$$
>  <compound>
COc1ccc(C2CC3CC(CO)CC32)cc1C(=O)N[C@H]1[C@@H](C(=O)Nc2ccc(F)c(C(F)(F)F)c2)[C@H]2CC[C@@H]1/C2=C\C1CC1 (single isomer, unassigned) [Example 350]

>  <system.under.test>
human RXFP1 (Homo sapiens, UniProt Q9HBX9)

>  <pEC50>
7.75

$$$$

Ask | State the recorded pEC50 for this entry: COc1ccc(COCCC(=O)O)cc1C(=O)N[C@@H]1C2CCC(C2=C(C)C)[C@@H]1C(=O)Nc1ccc(F)c(C(F)(F)F)c1 (some centres unmarked)
Reply | 6.15

Ask | State the recorded pEC50 for this entry: COC(=O)C1CC2(C1)CC(c1ccc(OC)c(C(=O)N[C@@H]3C4CCC(/C4=C/C(F)(F)F)[C@@H]3C(=O)Nc3ccc(F)c(C(F)(F)F)c3)c1)C2 (single isomer, unassigned) [Example 150]
Reply | 6.15
